B1: TPR 5TU (parent)
chain: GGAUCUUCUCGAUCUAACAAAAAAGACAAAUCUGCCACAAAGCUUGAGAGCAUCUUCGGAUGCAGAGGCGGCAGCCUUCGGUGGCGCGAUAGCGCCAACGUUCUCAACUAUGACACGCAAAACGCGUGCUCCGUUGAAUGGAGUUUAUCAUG

Variants of: B1
assay protocol: polymerase ribozyme fitness, log enrichment relative to wild type (log ratio); higher = more active; in vitro selection for triplet polymerase activity
Fewer inactive variants are shown than the library holds.
quantity kind: polymerase ribozyme fitness (log ratio)

Known polymerase ribozyme fitness (log ratio) results, listed for orientation:
# variant spec, polymerase ribozyme fitness (log ratio)
data = [
    ("A29G U78G G84C", "≤ -4.2"),
    ("U56A G88U C114A", "≤ -4.2"),
    ("C35U G86U C95G", -3.9),
    ("G58C C118A", -0.0404),
    ("G84U A89G", -3.82),
    ("C93G G140C", "≤ -4.2"),
    ("C10G G81C C87A U127C U144A U148A", "≤ -4.2"),
    ("C69U C87A G141U G143A", "≤ -4.2"),
    ("A21U C57A C76U C116A", 0.702),
    ("A37C C54U A60C U61G C96U C99A G112A A115G", "≤ -4.2"),
]

// query Any idea what its polymerase ribozyme fitness (log ratio) is? The variant is A29C U44A A52U G58A C118A
// result ≤ -4.2

// query Any idea what its polymerase ribozyme fitness (log ratio) is? The variant is C36A C105U U127G
// result ≤ -4.2

// query Any idea what its polymerase ribozyme fitness (log ratio) is? The variant is A28C G84A G94U C96G C108G U139C G143C
// result ≤ -4.2

// query Any idea what its polymerase ribozyme fitness (log ratio) is? The variant is U7G C18U A19U A28U C85A C87U A97U
// result ≤ -4.2

// query Any idea what its polymerase ribozyme fitness (log ratio) is? The variant is U61A C79G U82C C132G
// result ≤ -4.2
